pIC50, Botulinum neurotoxin type A (Clostridium botulinum, UniProt P0DPI0): measured values
Units for pIC50: none; it is -log10 of a concentration expressed in mol/L.

O=C(CC12CC3CC(C1)CC(c1ccc(Br)cc1)(C3)C2)NO :: 7.40
O=C(CC12CC3CC(CC(C3)C1)C2)NO :: 6.00
O=C(CC12CC3CC(CC(F)(C3)C1)C2)NO :: 5.51
O=C(CC12CC3CC(C1)CC(c1ccc(Cl)cc1)(C3)C2)NO :: 7.52
O=C(CC12CC3CC(CC(Cl)(C3)C1)C2)NO :: 5.85

Here is the next item to consider.
# query: pIC50 | item O=C(CC12CC3CC(C1)CC(c1ccccc1)(C3)C2)NO | system: Botulinum neurotoxin type A (Clostridium botulinum, UniProt P0DPI0)
6.30
